Data credit: patent US12528783B2

Exercise: for every item that follows, state its recorded pIC50.
system: P. aeruginosa pyocyanin production; assay: Pyocyanin assay; type: cell-based; settings: Pseudomonas aeruginosa, PA14, 16 h, read-out: IC50-value towards pyocyanin production, PA14 in PPGAS medium, 16 h
pIC50: −log10 of the molar value.

Known value: P. aeruginosa pyocyanin production pIC50 of the compound `FC(F)(F)c1cc(NCc2nc3cc(Nc4ccccc4)ccc3[nH]2)ccn1` equals 6.30 to 6.70

// assay P. aeruginosa pyocyanin production, entry `Nc1cc(SCc2nc3cc(Nc4cccc(F)c4)ccc3[nH]2)cc(C(F)(F)F)n1` , pIC50 value = ≥ 7.00

Tested system P. aeruginosa pyocyanin production; pIC50 recorded for `O=[N+]([O-])c1cc(-c2ncc(CNc3cc(Cl)nc(C(F)(F)F)c3)cn2)ccc1Cl` was 6.70 to 7.00

Bench note, P. aeruginosa pyocyanin production: entry `Fc1cccc(Nc2cc(F)c3[nH]c(CSc4ccnc(C(F)(F)F)c4)nc3c2)c1` , its pIC50 = ≥ 7.00

Field pIC50 (system: P. aeruginosa pyocyanin production) for entry `Fc1c(Nc2ccc3[nH]c(CSc4ccnc(C(F)(F)F)c4)nc3c2)cccc1C(F)(F)F` = 6.70 to 7.00

Here `Fc1cccc(F)c1Nc1ccc2[nH]c(CSc3ccnc(C(F)(F)F)c3)nc2c1` was tested on P. aeruginosa pyocyanin production, and its pIC50 came to 6.70 to 7.00

Record for `FC(F)(F)c1cc(OCc2nc3cc(Nc4ccccc4Cl)ccc3[nH]2)ccn1` under target or system P. aeruginosa pyocyanin production: pIC50 reported as 6.30 to 6.70

Known value: P. aeruginosa pyocyanin production pIC50 of the compound `Nc1cc(SCc2nc3cc(Nc4ccccc4)ccc3[nH]2)nc(C(F)(F)F)n1` equals 6.70 to 7.00

pIC50 for P. aeruginosa pyocyanin production with input `FC(F)(F)Oc1ccccc1Nc1ccc2[nH]c(CSc3ccnc(C(F)(F)F)c3)nc2c1` equals 6.30 to 6.70

Considering `COc1cccc(Nc2ccc3[nH]c(CSc4ccnc(C(F)(F)F)c4)nc3c2)c1` , its pIC50 with P. aeruginosa pyocyanin production was recorded as 6.70 to 7.00

The reported pIC50 value, P. aeruginosa pyocyanin production, for `Fc1cncc(Nc2ccc3[nH]c(CSc4ccnc(C(F)(F)F)c4)nc3c2)c1` reads 6.30 to 6.70

pIC50 value, target or system P. aeruginosa pyocyanin production, for `Cc1ccc(Nc2ccc3[nH]c(CSc4ccnc(C(F)(F)F)c4)nc3c2)cc1` : 6.70 to 7.00

Lab entry: P. aeruginosa pyocyanin production assay, compound `Fc1cc(Nc2ccccc2)cc2nc(CSc3ccnc(C(F)(F)F)c3)[nH]c12` , pIC50 = ≥ 7.00

Bench note, P. aeruginosa pyocyanin production: `Nc1cc(SCc2nc3cc(Nc4ccccc4)ccc3[nH]2)cc(C(F)(F)F)n1` , pIC50 reads 6.70 to 7.00

`NC(=O)c1ccccc1Nc1ccc2[nH]c(CSc3ccnc(C(F)(F)F)c3)nc2c1` tested on P. aeruginosa pyocyanin production gave pIC50: 6.70 to 7.00

Entry `Fc1ccc(C(F)(F)F)cc1Nc1ccc2[nH]c(CSc3ccnc(C(F)(F)F)c3)nc2c1` : pIC50 on P. aeruginosa pyocyanin production = 6.30 to 6.70

Form field, pIC50 with P. aeruginosa pyocyanin production, item `FC(F)(F)c1cc(SCc2nc3cc(NC4CCCCC4)ccc3[nH]2)ccn1` : 6.00 to 6.30

Entry `Fc1cccc(Nc2ccc3[nH]c(CSc4ccnc(C(F)(F)F)c4)nc3c2)c1F` , tested on P. aeruginosa pyocyanin production, has a reported pIC50 of 6.30 to 6.70

For the compound `Fc1ccc(Nc2ccc3[nH]c(CSc4ccnc(C(F)(F)F)c4)nc3c2)cc1F` , the measured pIC50 on P. aeruginosa pyocyanin production was ≥ 7.00

Response field pIC50 (P. aeruginosa pyocyanin production) for item `FC(F)(F)c1cc(SCc2nc3cc(Nc4cccnc4)ccc3[nH]2)ccn1` : 6.00 to 6.30

Sample `Cc1ccc(Nc2ccc3[nH]c(CSc4ccnc(C(F)(F)F)c4)nc3c2)cc1F` , system: P. aeruginosa pyocyanin production. Its pIC50 is ≥ 7.00

Let me check: `Fc1ccccc1Nc1ccc(-n2cc(CNc3ccnc(C(F)(F)F)c3)nn2)cc1` , system P. aeruginosa pyocyanin production, measured pIC50 is 6.30 to 6.70

The compound `Nc1cc(-c2ncc(CNc3cc(Cl)nc(C(F)(F)F)c3)cn2)ccc1Cl` , when measured on P. aeruginosa pyocyanin production, yielded pIC50 of 6.00 to 6.30

The recorded pIC50 with P. aeruginosa pyocyanin production for `Fc1ccc(Nc2cccc(-n3cc(CNc4ccnc(C(F)(F)F)c4)nn3)c2)cc1` was 6.30 to 6.70

Entry `FC(F)(F)c1cc(SCc2nc3ccc(Nc4ccccc4)cc3o2)ccn1` , P. aeruginosa pyocyanin production data, pIC50 value: 6.30 to 6.70

The compound `Fc1cccc(Nc2ccc3[nH]c(CSc4ccnc(C(F)(F)F)c4)nc3c2)c1` on P. aeruginosa pyocyanin production: pIC50 was ≥ 7.00

Lab entry: P. aeruginosa pyocyanin production assay, compound `Fc1ccc(Nc2ccc3[nH]c(CSc4ccnc(C(F)(F)F)c4)nc3c2)c(F)c1` , pIC50 = 6.70 to 7.00

For the compound `Nc1cccc(-c2ncc(CNc3cc(Cl)nc(C(F)(F)F)c3)cn2)c1` , the measured pIC50 on P. aeruginosa pyocyanin production was 6.00 to 6.30

Summary: `COc1cc(F)cc(Nc2ccc3[nH]c(CSc4ccnc(C(F)(F)F)c4)nc3c2)c1` , P. aeruginosa pyocyanin production, pIC50 = 6.30 to 6.70

The recorded pIC50 with P. aeruginosa pyocyanin production for `FC(F)(F)c1cc(SCc2nc3ccc(Nc4ccccc4)cc3s2)ccn1` was 6.00 to 6.30

The reported pIC50 value, P. aeruginosa pyocyanin production, for `FC(F)(F)c1cc(SCc2nc3cc(Nc4ccccc4Cl)ccc3[nH]2)ccn1` reads ≥ 7.00

Entry `Fc1ccc(F)c(Nc2cccc(-n3cc(CNc4ccnc(C(F)(F)F)c4)nn3)c2)c1` , P. aeruginosa pyocyanin production data, pIC50 value: 6.70 to 7.00

Item `Cc1c(F)cc(Nc2ccc3[nH]c(CSc4ccnc(C(F)(F)F)c4)nc3c2)cc1F` was tested on P. aeruginosa pyocyanin production; the reported pIC50 is 6.70 to 7.00
